experiment: Pharmacokinetics of Compound A, plasma concentrations after IV infusion; format: in vivo, human; details: both sexes, human, plasma, intravenous, ENA-001 high dose, N 12; read-out: AUCinf Mean
MEASUREMENT_KIND: AUC(0-inf) (ng·h/mL)
Answers are plain numbers, in ng·h/mL.

Sure, the documented AUC(0-inf) for CCCNc1nc(NCCC)nc(N(C)OC)n1 is 8710

====

experiment: Pharmacokinetics of Compound A, plasma concentrations after IV infusion; assay type: in vivo, human; settings: both sexes, human, plasma, intravenous, high dose; read-out: range of apparent terminal t1/2
MEASUREMENT_KIND: half-life

Sure, the documented half-life for CCCNc1nc(NCCC)nc(N(C)OC)n1 is 3.39 to 8.4 h

====

assay: Pharmacokinetics of Compound A, plasma concentrations after IV infusion; assay type: in vivo, human; conditions: both sexes, human, plasma, intravenous, ENA-001 low dose, N 12; read-out: Cmax Median
MEASUREMENT_KIND: Cmax (ng/mL)
Numbers only, in ng/mL.

Sure, the documented Cmax for CCCNc1nc(NCCC)nc(N(C)OC)n1 [Compound A] is 477

====

experiment: Pharmacokinetics of Compound A, plasma concentrations after IV infusion; assay type: in vivo, human; conditions: both sexes, human, plasma, intravenous, high dose; read-out: mean (±SD) Cmax
MEASUREMENT_KIND: Cmax (ng/mL)
Numbers only, in ng/mL.

Sure, the documented Cmax for CCCNc1nc(NCCC)nc(N(C)OC)n1 [Compound A] is 1560

====

test: Pharmacokinetics of Compound A, plasma concentrations after IV infusion; format: in vivo, human; details: both sexes, human, plasma, intravenous, ENA-001 high dose, N 12; read-out: AUClast Median
MEASUREMENT_KIND: AUC(0-t) (ng·h/mL)
Answers are plain numbers, in ng·h/mL.

Sure, the documented AUC(0-t) for CCCNc1nc(NCCC)nc(N(C)OC)n1 is 7540

====

assay: Pharmacokinetics of Compound A, plasma concentrations after IV infusion; assay type: in vivo, human; details: both sexes, human, plasma, intravenous, ENA-001 high dose, N 12; read-out: AUCinf Median
MEASUREMENT_KIND: AUC(0-inf) (ng·h/mL)
Answers are plain numbers, in ng·h/mL.

Sure, the documented AUC(0-inf) for CCCNc1nc(NCCC)nc(N(C)OC)n1 is 7800

====

test: Pharmacokinetics of Compound A, plasma concentrations after IV infusion; type: in vivo, human; conditions: both sexes, human, plasma, intravenous, ENA-001 low dose, N 12; read-out: CL Median (converted)
MEASUREMENT_KIND: clearance (mL/min)
Give bare numbers, in mL/min.

Sure, the documented clearance for CCCNc1nc(NCCC)nc(N(C)OC)n1 [Compound A] is 885

====

assay: Pharmacokinetics of Compound A, plasma concentrations after IV infusion; assay type: in vivo, human; conditions: both sexes, human, plasma, intravenous, low dose; read-out: tmax (mean peak concentrations)
MEASUREMENT_KIND: Tmax (h)
Numbers only, in h.

Sure, the documented Tmax for CCCNc1nc(NCCC)nc(N(C)OC)n1 [Compound A] is 4.26

====

Assay: Pharmacokinetics of Compound A, plasma concentrations after IV infusion
Format: in vivo, human
Conditions: both sexes, human, plasma, intravenous, ENA-001 high dose, N 12; read-out: CL Geometric Mean (converted)
Protocol: Subjects underwent 3 separate treatment periods. […] PD will be unblinded for treatment but not subject. […] Participant Disposition Pharmacokinetic samples were measured up to 24 hours after the start of the IV infusion. […] Therefore, a fast decrease in concentration was observed, followed by a slow […].
MEASUREMENT_KIND: clearance

Sure, the documented clearance for CCCNc1nc(NCCC)nc(N(C)OC)n1 [Compound A] is 735 mL/min
